Tested on: SW948 (Dukes' Type C, Grade III, premetastatic colorectal adenocarcinoma)
Test: MTT cytotoxicity, SW948 cells
Settings: SW948 cells, MTT, 48 h, mean ± SD
value-kind: CC50
Provide the measurement as a number trailed by its unit.

Which CC50 value belongs to C[N+](C)(CCl)CCCC=C(c1cccc(C(F)(F)F)c1)c1cccc(C(F)(F)F)c1 [Compound 5] ? 43.5 µM

###

System: SW948 (Dukes' Type C, Grade III, premetastatic colorectal adenocarcinoma)
Assay: MTT cytotoxicity, SW948 cells
Settings: IS = CC50 MCRT ÷ CC50 SW948
value-kind: Index of selectivity MCRT / SW948
One number for each entry.

// solved cases for Index of selectivity MCRT / SW948 follow
molecule: C[N+](C)(CI)CCCC=C(c1cccc(C(F)(F)F)c1)c1cccc(C(F)(F)F)c1
system-name: SW948 (Dukes' Type C, Grade III, premetastatic colorectal adenocarcinoma)
reading: 2.8
//
molecule: C[N+](C)(CI)CCCCC=C(c1cccc(C(F)(F)F)c1)c1cccc(C(F)(F)F)c1
system-name: SW948 (Dukes' Type C, Grade III, premetastatic colorectal adenocarcinoma)
reading: 4.4
//
molecule: C[N+](C)(CI)CCCC=C(c1ccccc1)c1ccccc1
system-name: SW948 (Dukes' Type C, Grade III, premetastatic colorectal adenocarcinoma)
reading: 2.6

Batch request: Index of selectivity MCRT / SW948 for each of the following molecules.
1. C[N+](C)(CCl)CCCCC=C(c1ccc(F)cc1)c1ccc(F)cc1
2. C[N+](C)(C)CCCC=C(c1cccc(F)c1)c1cccc(F)c1
3. O=c1[nH]cc(F)c(=O)[nH]1 [Compound 5-FU, 5-fluorouracil, reference compound]
4. C[N+](C)(CI)CCCC=C(c1ccc(C(F)(F)F)cc1)c1ccc(C(F)(F)F)cc1
5. C[N+](C)(CCl)CCCC=C(c1cccc(C(F)(F)F)c1)c1cccc(C(F)(F)F)c1

1: 2.5; 2: 1.0; 3: 31.2; 4: 10.3; 5: 2.8

###

Test: Ex vivo MTT cytotoxicity, healthy murine colorectal tissue
Type: cell-based, BALB/c mice
Settings: BALB/c, mouse, healthy murine colorectal tissue (MCRT) pieces, ex vivo, nontumoral control, MTT, 48 h, mean ± SD
value-kind: log10 CC50 at 48 h (log10 of the value in µM)
Log10 applied to CC50 at 48 h; unit prior to transform: µM.

Examples with their reported log10 CC50 at 48 h follow.
molecule: C[N+](C)(CI)CCCC=C(c1ccc(F)cc1)c1ccc(F)cc1 [Compound 2]
log10 CC50 at 48 h: 2.31
--
molecule: C[N+](C)(CI)CCCC=C(c1ccc(C(F)(F)F)cc1)c1ccc(C(F)(F)F)cc1 [Compound 9]
log10 CC50 at 48 h: 2.31
--
molecule: C[N+](C)(CCl)CCCC=C(c1ccc(C(F)(F)F)cc1)c1ccc(C(F)(F)F)cc1 [Compound 8]
log10 CC50 at 48 h: 2.01

Batch request: log10 CC50 at 48 h for each of the following molecules.
1. C[N+](C)(CI)CCCCC=C(c1ccc(F)cc1)c1ccc(F)cc1 [Compound 4]
2. C[N+](C)(CCl)CCCCC=C(c1ccc(F)cc1)c1ccc(F)cc1 [Compound 3]
3. C[N+](C)(CI)CCCCC=C(c1ccccc1)c1ccccc1 [Compound 16]
4. C[N+](C)(CCl)CCCC=C(c1cccc(C(F)(F)F)c1)c1cccc(C(F)(F)F)c1 [Compound 5]

2.03
2.11
2.13
2.08

###

Assay: MTT cytotoxicity, peripheral blood mononuclear cells
Format: cell-based
Conditions: human, peripheral blood mononuclear cells (PBMC); PBMC, nontumoral control, MTT, 48 h, mean ± SD
Kindly apply the following: Met if CC50 at 48 h is less than 40 µM, Not met in every other case.

Examples from the recorded data:
compound: O=c1[nH]cc(F)c(=O)[nH]1 [Compound 5-FU, 5-fluorouracil, reference compound]
label-class: Met
--
compound: C[N+](C)(CI)CCCC=C(c1ccccc1)c1ccccc1
label-class: Met
--
compound: C[N+](C)(CI)CCCCC=C(c1ccc(F)cc1)c1ccc(F)cc1
label-class: Not met
--
compound: C[N+](C)(CI)CCCCC=C(c1ccccc1)c1ccccc1
label-class: Met
--
compound: C[N+](C)(CCl)CCCC=C(c1cccc(C(F)(F)F)c1)c1cccc(C(F)(F)F)c1
label-class: Met

API: query returns whether the compound falls strictly under 40 µM in CC50 at 48 h. Query: C[N+](C)(CCl)CCCC=C(c1ccc(C(F)(F)F)cc1)c1ccc(C(F)(F)F)cc1 Not met

Is CC50 at 48 h of C[N+](C)(CI)CCCC=C(c1cccc(C(F)(F)F)c1)c1cccc(C(F)(F)F)c1 strictly below 40 µM? Not met

Please indicate whether the reported CC50 at 48 h of C[N+](C)(C)CCCCC=C(c1ccc(C(F)(F)F)cc1)c1ccc(C(F)(F)F)cc1 is strictly below 40 µM. Not met

# strict comparison: is reported CC50 at 48 h < 40 µM? input = C[N+](C)(CI)CCCCC=C(c1cccc(C(F)(F)F)c1)c1cccc(C(F)(F)F)c1 Met

Please state whether CC50 at 48 h is below 40 µM for C[N+](C)(CI)CCCC=C(c1ccc(F)cc1)c1ccc(F)cc1 Met

Hello, I'm reviewing records and need to know if CC50 at 48 h of C[N+](C)(C)CCCC=C(c1cccc(C(F)(F)F)c1)c1cccc(C(F)(F)F)c1 is below 40 µM. Could you check? Not met

###

Test system: SW948 (Dukes' Type C, Grade III, premetastatic colorectal adenocarcinoma)
Assay: MTT cytotoxicity, SW948 cells
Settings: IS = CC50 MCRT ÷ CC50 SW948
Label criterion met when Index of selectivity MCRT / SW948 >= 4; otherwise criterion not met.

molecule-smiles: C[N+](C)(CI)CCCC=C(c1ccc(F)cc1)c1ccc(F)cc1
system-name: SW948 (Dukes' Type C, Grade III, premetastatic colorectal adenocarcinoma)
label-class: criterion not met

Reported Index of selectivity MCRT / SW948 at or above 4? C[N+](C)(CCl)CCCC=C(c1ccc(C(F)(F)F)cc1)c1ccc(C(F)(F)F)cc1 criterion met

Please indicate if the recorded Index of selectivity MCRT / SW948 for C[N+](C)(CCl)CCCCC=C(c1ccc(C(F)(F)F)cc1)c1ccc(C(F)(F)F)cc1 meets or exceeds 4. criterion met

Hi team, for C[N+](C)(C)CCCC=C(c1cccc(C(F)(F)F)c1)c1cccc(C(F)(F)F)c1 , is the recorded Index of selectivity MCRT / SW948 at or above 4? criterion met

Check this molecule for Index of selectivity MCRT / SW948 at or above 4: C[N+](C)(C)CCCC=C(c1ccc(C(F)(F)F)cc1)c1ccc(C(F)(F)F)cc1 criterion met

Please indicate if the recorded Index of selectivity MCRT / SW948 for C[N+](C)(CI)CCCCC=C(c1ccccc1)c1ccccc1 meets or exceeds 4. criterion not met

Threshold query (Index of selectivity MCRT / SW948 >= 4) on C[N+](C)(C)CCCCC=C(c1ccc(C(F)(F)F)cc1)c1ccc(C(F)(F)F)cc1 criterion met

Assess whether reported Index of selectivity MCRT / SW948 for C[N+](C)(CI)CCCCC=C(c1ccc(F)cc1)c1ccc(F)cc1 sits at 4 or higher. criterion not met

###

Experiment: MTT cytotoxicity, peripheral blood mononuclear cells
Format: cell-based
Details: human, peripheral blood mononuclear cells (PBMC); PBMC, nontumoral control, MTT, 48 h, mean ± SD
Please provide measured CC50 at 48 h for the entries that follow.
Returns: string containing the number followed by the unit.

The examples below pair each entry with its known result.
molecule-smiles: C[N+](C)(CI)CCCCC=C(c1ccc(C(F)(F)F)cc1)c1ccc(C(F)(F)F)cc1
CC50 at 48 h: 53.9 µM

molecule-smiles: C[N+](C)(C)CCCC=C(c1cccc(F)c1)c1cccc(F)c1
CC50 at 48 h: 29.8 µM

molecule-smiles: C[N+](C)(CI)CCCC=C(c1ccc(C(F)(F)F)cc1)c1ccc(C(F)(F)F)cc1
CC50 at 48 h: 30.6 µM

Moving on to another compound below.
For the compound shown here, C[N+](C)(C)CCCC=C(c1ccc(C(F)(F)F)cc1)c1ccc(C(F)(F)F)cc1 , give the reported CC50 at 48 h. 51.4 µM

###

Tested on: SW48 (Dukes' Type C, Grade IV, noninvasive colorectal adenocarcinoma)
Test: MTT cytotoxicity, SW48 cells
Details: Homo sapiens, SW48, 48 h, SW48 cells, MTT, 48 h, mean ± SD
value-kind: CC50 (µM)
One number for each entry, in µM.

Worked examples, 2 compounds total:
compound: C[N+](C)(CI)CCCCC=C(c1ccc(C(F)(F)F)cc1)c1ccc(C(F)(F)F)cc1
units-text: µM
reading: 18.5

compound: C[N+](C)(C)CCCC=C(c1cccc(F)c1)c1cccc(F)c1
units-text: µM
reading: 105

Below is a list of compounds. For each, state its recorded CC50.
1. C[N+](C)(C)CCCC=C(c1cccc(C(F)(F)F)c1)c1cccc(C(F)(F)F)c1
2. C[N+](C)(CI)CCCC=C(c1ccc(C(F)(F)F)cc1)c1ccc(C(F)(F)F)cc1
3. C[N+](C)(CI)CCCC=C(c1ccccc1)c1ccccc1
4. C[N+](C)(CI)CCCC=C(c1cccc(C(F)(F)F)c1)c1cccc(C(F)(F)F)c1
5. C[N+](C)(CCl)CCCC=C(c1ccc(C(F)(F)F)cc1)c1ccc(C(F)(F)F)cc1

81.4
40.2
124
55.5
50.8

Consider the following items and state reported CC50 for each.
1. O=c1[nH]cc(F)c(=O)[nH]1 [Compound 5-FU, 5-fluorouracil, reference compound]
2. C[N+](C)(CI)CCCC=C(c1ccc(F)cc1)c1ccc(F)cc1

1. 30.3
2. 75.7
